Taken from ChEMBL document CHEMBL3885861.

organism: Rattus norvegicus; assay: Open TG-GATES - Regimen: Daily Repeat; format: toxicity, organism-based, Sprague-Dawley; set-up: regimen Daily Repeat, gender Male, age 6 weeks; settings: in vivo, po, 300 mg/kg, […], tissue Blood, route gavage, dose level Middle, time 7 day
readout.name: Lym (%)

>  <compound>
O=C(N[C@H](CO)[C@H](O)c1ccc([N+](=O)[O-])cc1)C(Cl)Cl

>  <readout.name>
Lym

>  <result>
78.2

$$$$
>  <compound>
CCN1CCCC1CNC(=O)c1cc(S(N)(=O)=O)ccc1OC (centres undefined) [SULPIRIDE]

>  <readout.name>
Lym

>  <result>
81.8

$$$$
>  <compound>
CC(C)(S)[C@@H](N)C(=O)O

>  <readout.name>
Lym

>  <result>
75.4

$$$$
>  <compound>
O=C(O)c1cccnc1

>  <readout.name>
Lym

>  <result>
75

$$$$
